All values here come from patent US20250136556A1.

Target: Human Aryl Hydrocarbon Receptor (AHR) (Homo sapiens, UniProt P35869)
Construct: purchased INDIGO Bioscience IB06001-32; host or cells: AHR Reporter Cell (proprietary kit cells)
Test: AHR agonist reporter assay in human cell line (INDIGO luciferase reporter)
Type: cell-based
Conditions: reporter cells, 24 hours incubation, second line of cell; read-out: AHR abEC50
So I've got a bunch of compounds here, and I need their EC50 values.

Lookup: Identify measured EC50 corresponding to CC(C)c1ncc(-c2cnc3c(F)cc(N)cc3c2)cc1O
Found: > 0.1 µM

Lookup: Identify measured EC50 corresponding to COc1cc2ncccc2cc1-c1cc(O)c(C(C)C)c(O)c1
Found: > 0.1 µM

Lookup: Identify measured EC50 corresponding to FC(F)(F)c1ccc(Nc2nccc(-c3cccc(Cl)c3)n2)cc1 [Reference, reference compound]
Found: 0.0171 µM

Lookup: Identify measured EC50 corresponding to CC(C)c1ncc(-c2ccc(F)c3ccc(C(F)(F)F)nc23)cc1O
Found: > 0.1 µM

Lookup: Identify measured EC50 corresponding to CC(C)c1ncc(-c2ncnc3ccccc23)cc1O
Found: > 0.1 µM

Lookup: Identify measured EC50 corresponding to COc1ccc2ccc(-c3cnc(C(C)C)c(O)c3)cc2n1
Found: > 0.1 µM

Lookup: Identify measured EC50 corresponding to CC(C)c1ncc(-c2cccc3ncccc23)cc1O
Found: > 0.1 µM

Lookup: Identify measured EC50 corresponding to CC(C)c1ncc(-c2cc3ccccc3cn2)cc1O
Found: 0.569 µM

Lookup: Identify measured EC50 corresponding to CC(C)c1ncc(-c2cc(F)c3cnc(N)nc3c2)cc1O
Found: > 0.1 µM

Lookup: Identify measured EC50 corresponding to CC(C)c1c(O)cc(-c2nc3ccccc3o2)cc1O
Found: 0.0534 µM

---

So I've got a bunch of molecules here, and I need their EC50 values.
Molecular target: Human Aryl Hydrocarbon Receptor (AHR) (Homo sapiens)
Construct: purchased INDIGO Bioscience IB06001-32; host or cells: AHR Reporter Cell (proprietary kit cells)
Sequence (P35869 11-848): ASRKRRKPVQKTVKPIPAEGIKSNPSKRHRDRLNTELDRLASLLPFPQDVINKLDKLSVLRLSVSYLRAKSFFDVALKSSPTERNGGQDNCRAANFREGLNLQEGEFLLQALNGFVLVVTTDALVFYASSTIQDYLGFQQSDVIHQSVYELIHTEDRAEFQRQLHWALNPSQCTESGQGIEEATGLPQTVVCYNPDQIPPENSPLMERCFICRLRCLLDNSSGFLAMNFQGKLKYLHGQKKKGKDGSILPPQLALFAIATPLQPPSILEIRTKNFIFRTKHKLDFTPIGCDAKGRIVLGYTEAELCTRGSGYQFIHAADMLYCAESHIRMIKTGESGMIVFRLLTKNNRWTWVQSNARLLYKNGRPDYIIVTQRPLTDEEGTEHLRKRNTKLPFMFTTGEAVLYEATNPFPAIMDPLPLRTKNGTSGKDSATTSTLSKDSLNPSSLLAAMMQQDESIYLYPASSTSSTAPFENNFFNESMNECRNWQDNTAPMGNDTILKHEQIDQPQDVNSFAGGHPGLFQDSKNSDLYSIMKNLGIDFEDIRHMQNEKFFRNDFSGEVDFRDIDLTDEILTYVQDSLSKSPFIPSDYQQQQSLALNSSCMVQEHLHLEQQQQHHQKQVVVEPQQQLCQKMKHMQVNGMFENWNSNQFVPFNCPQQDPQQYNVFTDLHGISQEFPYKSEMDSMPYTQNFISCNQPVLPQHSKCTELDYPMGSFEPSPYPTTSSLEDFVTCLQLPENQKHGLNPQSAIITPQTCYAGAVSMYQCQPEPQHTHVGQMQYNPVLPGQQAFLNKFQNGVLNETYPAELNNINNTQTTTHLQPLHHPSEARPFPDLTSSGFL
Experiment: AHR agonist reporter assay in human cell line (INDIGO luciferase reporter);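 also: firefly luciferase luminescence read on a plate reader, values normalized against positive and negative controls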
Format: cell-based
Settings: reporter cells, 24 hours incubation, second line of cell; read-out: AHR abEC50

Lookup: Provide measured EC50 on Human Aryl Hydrocarbon Receptor (AHR) (Homo sapiens) for CC(C)c1c(O)cc(-c2cc(F)c3ncccc3c2)cc1O please.
Found: 109 nM

Lookup: Provide measured EC50 on Human Aryl Hydrocarbon Receptor (AHR) (Homo sapiens) for CC(C)c1c(O)cc(-c2ccc(F)c3ccc(C(F)(F)F)nc23)cc1O please.
Found: > 100 nM

Lookup: Provide measured EC50 on Human Aryl Hydrocarbon Receptor (AHR) (Homo sapiens) for CC(C)c1ncc(-c2nc3ccccc3[nH]2)cc1O please.
Found: 94.4 nM

Lookup: Provide measured EC50 on Human Aryl Hydrocarbon Receptor (AHR) (Homo sapiens) for CC(C)c1c(O)cc(-c2cc(F)c3ncccc3c2F)cc1O please.
Found: > 100 nM

Lookup: Provide measured EC50 on Human Aryl Hydrocarbon Receptor (AHR) (Homo sapiens) for CC(C)c1c(O)cc(-c2ccnc3c(F)cccc23)cc1O please.
Found: > 100 nM

Lookup: Provide measured EC50 on Human Aryl Hydrocarbon Receptor (AHR) (Homo sapiens) for CC(C)c1ncc(-c2cc3cccnc3cc2F)cc1O please.
Found: > 100 nM

Lookup: Provide measured EC50 on Human Aryl Hydrocarbon Receptor (AHR) (Homo sapiens) for CC(C)c1ncc(/C=C/c2ccccc2)cc1O [Compound 103, (E)-2-isopropyl-5-styrylpyridine-3-ol] please.
Found: 241 nM

Lookup: Provide measured EC50 on Human Aryl Hydrocarbon Receptor (AHR) (Homo sapiens) for CC(C)c1ncc(-c2cc(F)c3ncccc3c2)cc1O please.
Found: > 100 nM

Lookup: Provide measured EC50 on Human Aryl Hydrocarbon Receptor (AHR) (Homo sapiens) for CC(C)c1c(O)cc(-c2cc(O)cc3cccnc23)cc1O please.
Found: > 100 nM

Lookup: Provide measured EC50 on Human Aryl Hydrocarbon Receptor (AHR) (Homo sapiens) for CC(C)c1c(O)cc(Sc2ccccc2)cc1O please.
Found: > 400 nM
